Assay: Metabolic stability in Sprague-Dawley rat liver microsomes assessed as compound remaining at 5 uM preincubated for 5 mins followed by NADPH addition and measured at 30 mins by LC/MS analysis
Type: ADME, Microsome
Conditions: time 35 min, read-out: Stabilty
Measure Name: remaining at 0.5 h, 5 µM (%)
Please reply with the bare figure in % and do not write the unit itself.

### Prompt Item CCCc1nnc2c(Oc3ccc(NS(=O)(=O)c4cc(Cl)ccc4OC)cc3)nc3cc(F)c(F)cc3n12 has what recorded remaining at 0.5 h, 5 µM?
### Response 60

* * *

Test: Drug concentration in Wistar rat serum at 4 mg/kg, iv after 3 hrs by LC/MS analysis
Assay type: ADME, organism-based
Measure Name: concentration at 3 h

### Prompt # query: concentration at 3 h of entry CCCc1nnc2c(Oc3ccc(NS(=O)(=O)c4cc(Cl)ccc4OC)cc3)nc3cc(F)c(F)cc3n12
### Response > 2000 nM
